Reference for the values: patent US20220395464A1

- method: Pharmacokinetics after single intravenous drip infusion, plasma LC-MS/MS
- Format: in vivo, Philippine macaques
- conditions used: male, Philippine macaque, cynomolgus monkey, plasma, iv, 0.42 mg/kg, AST-3424-D6 single intravenous infusion, Table 15 heading 0.58 mg/kg (text: 0.42 mg/kg); plasma; individual animals 101, 102, 103; read-out: T1/2 (converted)
result type: half-life

Request: Need half-life, item [2H]C([2H])([2H])N(C(=O)c1cccc(Oc2cc([C@H](C)OP(=O)(N3CC3)N3CC3)ccc2[N+](=O)[O-])c1)C([2H])([2H])[2H] [AST-3424-D6]
Result: 7.8 min

###

- method: Solubility study of AST-3424 (shaking at 25° C., HPLC content)
- Type: physicochemical
- conditions used: purified water, 25 °C, water, thermodynamic from solid, Purified water, 4 h, read-out: Content (solubility test)
result type: solubility at 4 h (mg/mL)
State the answer as a number, implicitly in mg/mL.

Request: What solubility at 4 h value was documented for this compound, C[C@H](OP(=O)(N1CC1)N1CC1)c1ccc([N+](=O)[O-])c(Oc2cccc(C(=O)N(C)C)c2)c1 ?
Result: 20.1

###

- method: Pharmacokinetics after single intravenous drip infusion, plasma LC-MS/MS
- Format: in vivo, Philippine macaques
- conditions used: male, Philippine macaque, cynomolgus monkey, plasma, iv, 0.58 mg/kg, AST-3424 0.58 mg/kg single intravenous infusion; plasma; individual animals 101, 102, 103; read-out: AUC(0−t)
result type: AUC(0-t) (ng·h/mL)
Report as a plain number; the unit ng·h/mL is understood.

Request: Need AUC(0-t), item C[C@H](OP(=O)(N1CC1)N1CC1)c1ccc([N+](=O)[O-])c(Oc2cccc(C(=O)N(C)C)c2)c1 [AST-3424]
Result: 404

###

- method: Pharmacokinetics after single intravenous drip infusion, plasma LC-MS/MS
- Type: in vivo, Philippine macaques
- conditions used: male, Philippine macaque, plasma, intravenous, 0.42 mg/kg, AST-3424-D6 intravenous drip infusion 0.42 mg/kg; 0.25 hr; individual animals 101, 102, 103; read-out: Plasma-drug concentration
result type: concentration at 0.25 hr (µg/mL)
Give just the number in µg/mL; leave the unit off.

Request: # input molecule: [2H]C([2H])([2H])N(C(=O)c1cccc(Oc2cc([C@H](C)OP(=O)(N3CC3)N3CC3)ccc2[N+](=O)[O-])c1)C([2H])([2H])[2H] [AST-3424-D6] ; wanted: its concentration at 0.25 hr
Result: 0.479

###

- method: Pharmacokinetics after single intravenous drip infusion, plasma LC-MS/MS
- Type: in vivo, Philippine macaques
- conditions used: male, Philippine macaque, cynomolgus monkey, plasma, iv, 0.42 mg/kg, AST-3424-D6 single intravenous infusion, Table 15 heading 0.58 mg/kg (text: 0.42 mg/kg); plasma; individual animals 101, 102, 103; read-out: MRT(0−∞)
- Procedure: AST-3424 and AST-3424-D6 (i.e. the compound of formula I) were administered to Philippine macaques by intravenous drip infusion, and blood samples were collected at different appointed times. LC-MS/MS was used to determine concentrations of the test substances in plasma of the Philippine macaques after administration, and relevant pharmacokinetic parameters were calculated. […]
result type: MRT inf
Reply with the number and its unit after it.

Request: Could you share which MRT inf value was measured for [2H]C([2H])([2H])N(C(=O)c1cccc(Oc2cc([C@H](C)OP(=O)(N3CC3)N3CC3)ccc2[N+](=O)[O-])c1)C([2H])([2H])[2H] ?
Result: 9.6 min
